tested on: Heme; test: Inhibition of heme polymerization at 1 mM after 48 hrs by spectrophotometry relative to chloroquine
observable: inhibition

| compound | test-value |
| --- | --- |
| CC(C)C[C@@H](NC(=O)/C=C/c1ccccc1[N+](=O)[O-])C(=O)N[C@H](CCc1ccccc1)C(=O)Nc1ccnc2cc(Cl)ccc12 | 50% |
| CC(C)C[C@@H](NC(=O)/C=C/c1cccc(F)c1)C(=O)N[C@H](CCc1ccccc1)C(=O)Nc1ccnc2cc(Cl)ccc12 | < 50% |
| CCN(CC)CCCC(C)Nc1ccnc2cc(Cl)ccc12 (centres undefined) | > 75% |
| O=C(/C=C/c1ccc([N+](=O)[O-])cc1)Nc1ccnc2cc(Cl)ccc12 | < 50% |

# credit: ChEMBL document CHEMBL2040839
